Tested on: PC-3 prostate
Test: NCI tumour cell line growth inhibition, 48 h; in the data active = GI50 below about 0.43 µM; inactive = the rest
The reply should name one outcome from True (active), False (inactive)

Illustrative cases are given below, each with its answer.
>  <compound>
Cc1cc(Cc2cc(C)c(O)c(C)c2)cc(C)c1O

>  <class.label>
False

$$$$
>  <compound>
C=CCn1c(=O)c2cnc(Nc3ccc(N4CCN(C)CC4)cc3)nc2n1-c1ccc2c(n1)[C@@](O)(CC)CC2

>  <class.label>
False

$$$$
>  <compound>
O=C(COc1ccc(/C=C2\Oc3ccccc3C2=O)cc1)Nc1nccs1

>  <class.label>
False

$$$$

Q: In this assay, the call recorded for COC1C(O)C(C)OC(OC2C(Oc3cccc4c(O)c5c(=O)oc6ccc(C)c7c(=O)oc(c34)c5c67)OC(C)C3O[C@H](c4ccccc4)OC32)C1O (some centres undefined) was what?
Ans: True

Q: In this assay, the call recorded for C=C1C(=O)O[C@H]2[C@H]1CC/C(Cn1cc(CNCCc3c[nH]c4ccc(Cl)cc34)nn1)=C\CC[C@@]1(C)O[C@@H]21 was what?
Ans: False

Q: In this assay, the call recorded for COc1cc(-c2nn(-c3ccc(NC(=O)Nc4ccc(Cl)c(Cl)c4)cc3)cc2-c2ccncc2)ccc1Cl was what?
Ans: False

Q: In this assay, the call recorded for CN1CCN(CCCOc2cccc3nc(Nc4ccc(Cl)c(F)c4)ccc23)CC1 was what?
Ans: False

Q: In this assay, the call recorded for O=C(Cn1c(=O)c(-c2ccccc2)nc2ccccc21)c1ccc(Cl)cc1 was what?
Ans: False

Q: In this assay, the call recorded for COc1cc2c(c(OC)c1OC)C(=O)CC(c1cccc(NC(=O)c3ccc(Br)cc3)c1)O2 (centres undefined) was what?
Ans: False

====

System: M19-MEL melanoma
Assay: NCI tumour cell line growth inhibition, 48 h
readout.name: TGI

>  <molecule>
[C-]#[O+].[Cl][Sn]([Cl])[Cl].[Cl][Sn]([Cl])[Cl].[Pt].c1ccc([PH+](c2ccccc2)c2ccccc2)cc1.c1ccc([PH+](c2ccccc2)c2ccccc2)cc1

>  <TGI>
> 100 µM

$$$$
>  <molecule>
C#CCSc1nc(N)c2ncn(C3OC(CO)C(O)C3O)c2n1 (stereo not given)

>  <TGI>
> 100 µM

$$$$
>  <molecule>
O=C1c2cccc3cc([N+](=O)[O-])cc(c23)C(=O)N1NC1=NCCN1

>  <TGI>
> 100 µM

$$$$
>  <molecule>
O=S1CSCS1 (stereo not given)

>  <TGI>
> 100 µM

$$$$
>  <molecule>
C/C=C(\C)c1cc(=O)c2c(C)cc3c(c2o1)C(=O)c1c(O)c(C2CC(C)(N(C)C)C(O)C(C)O2)cc(C2CC(N(C)C)C(O)C(C)O2)c1C3=O (stereo not given)

>  <TGI>
16.1 µM

$$$$
>  <molecule>
N#CC(c1ccc(Cl)cc1)c1c(O)nc2ccc(=N)cc-2n1O (stereo not given)

>  <TGI>
> 100 µM

$$$$

Q: Can you share its TGI? I mean this molecule: O=C(O)c1c[nH]c2c(=O)[nH]cnc12
Ans: > 100 µM

Q: Can you share its TGI? I mean this molecule: COC(=O)[C@H]1[C@H]2C[C@@H]3c4[nH]c5cc(OC)ccc5c4CCN3C[C@H]2C[C@@H](OC(=O)c2cc(OC)c(OC)c(OC)c2)[C@@H]1OC
Ans: 50 µM

Q: Can you share its TGI? I mean this molecule: CC(=O)[CH-]C(=O)c1ccccc1.CC(=O)[CH-]C(=O)c1ccccc1.COc1cccc([O-])c1[O-].[Ti+4]
Ans: 89.7 µM

Q: Can you share its TGI? I mean this molecule: CC1(C)C(c2ccccc2)C12CCC1(C2=O)C(c2ccccc2)C1(C)C (stereo not given)
Ans: 58.9 µM
